Measured values drawn from patent US11464770B2 for this set.

Tested on: blood cancer cell lines (e.g. HL-60, Jurkat, Raji, Ramos, Daudi, MOLT-4)
method_notes: Cell based assay, cell viability (CellTiter-Glo), blood cancer cell lines
stated_conditions: Homo sapiens, blood cancer cell line MOLT-4, 72 hours, read-out: IC50, MOLT-4
measurement_kind: IC50 (nM)
Value expressed in nM; do not type the unit.

Solved cases (5 shown):
CC(=O)c1c([S+]([O-])Cc2ccc(S(F)(F)(F)(F)F)cc2F)[nH]c2c(Br)ccc(Cl)c2c1=O (stereo not drawn) ... 1300
CC(=O)c1c([S+]([O-])Cc2cc(F)cc(S(F)(F)(F)(F)F)c2)[nH]c2c(Br)ccc(Cl)c2c1=O (stereo not drawn) ... 1620
CC(=O)c1c([S+]([O-])Cc2cccc(S(F)(F)(F)(F)F)c2)[nH]c2c(Br)ccc(Cl)c2c1=O (stereo not drawn) ... 1350
Cc1cc(C[S+]([O-])c2[nH]c3c(Cl)ccc(Cl)c3c(=O)c2C(=O)C(C)C)no1 (stereo not drawn) ... 1010
CC(=O)c1c([S+]([O-])Cc2cccc(F)c2)[nH]c2c(Br)ccc(Cl)c2c1=O (stereo not drawn) ... 1660

Answer with the recorded IC50 for the molecule listed here: O=C(c1c([S+]([O-])Cc2ccc(SC(F)(F)F)cc2)[nH]c2c(Br)ccc(Cl)c2c1=O)C1CC1 (stereo not drawn)
1160

Give IC50 for CC(=O)c1c([S+]([O-])Cc2cc(Cl)ccc2Cl)[nH]c2c(Br)ccc(Cl)c2c1=O (stereo not drawn)
1470

Annotate the molecule CC(=O)c1c([S+]([O-])Cc2ccc(C(C)(C)C)cc2)[nH]c2c(Br)ccc(Cl)c2c1=O (stereo not drawn) with its measured IC50.
1630
